Target Desc: glutathione S-transferase (GST)-fused full-length human Syk protein (Homo sapiens, UniProt P43405)
Construct: (GST)-fused full-length human Syk protein; GST (glutathione S-transferase); purchased Carna Biosciences
Assay Overview: Syk enzyme assay
Assay type: biochemical
Condition Context: Syk enzyme assay, Test Example 1; read-out: IC50 of Syk-inhibitory activity
pIC50: −log10 of the molar value.
Readout Kind: pIC50

Worked cases, pIC50 given:
Compound	pIC50
NC(=O)c1cc(F)c(NC2CCCCC2N)nc1Nc1cncc(NC(=O)c2ccc3c(c2)OCCO3)c1 (stereo not shown)	7.30 to 8.00
NC(=O)c1cc(F)c(NC2CCCCC2N)nc1Nc1ccnc(-c2ccccc2)c1 (stereo not shown)	> 8.00

According to the records, this compound NC[C@H](Nc1nc(Nc2ccc3ncccc3c2)c(C(N)=O)cc1F)c1ccccc1 displays pIC50 of > 8.00

pIC50 reported for this compound NC(=O)c1cc(F)c(N[C@@H]2CCCC[C@@H]2N)nc1Nc1cnc(N2CCOCC2)c(-n2nccn2)c1 : 7.30 to 8.00
